# Assay System: zGlyRα4b/ßb (Danio rerio, UniProt A0A8M1P2L1+Q6DC22)
# Construct: gene glra4b; full-length cDNAs in pCS2+, cRNAs co-injected 1:1 in Xenopus laevis oocytes; heteropentamer
# Sequence (A0A8M1P2L1 25-492): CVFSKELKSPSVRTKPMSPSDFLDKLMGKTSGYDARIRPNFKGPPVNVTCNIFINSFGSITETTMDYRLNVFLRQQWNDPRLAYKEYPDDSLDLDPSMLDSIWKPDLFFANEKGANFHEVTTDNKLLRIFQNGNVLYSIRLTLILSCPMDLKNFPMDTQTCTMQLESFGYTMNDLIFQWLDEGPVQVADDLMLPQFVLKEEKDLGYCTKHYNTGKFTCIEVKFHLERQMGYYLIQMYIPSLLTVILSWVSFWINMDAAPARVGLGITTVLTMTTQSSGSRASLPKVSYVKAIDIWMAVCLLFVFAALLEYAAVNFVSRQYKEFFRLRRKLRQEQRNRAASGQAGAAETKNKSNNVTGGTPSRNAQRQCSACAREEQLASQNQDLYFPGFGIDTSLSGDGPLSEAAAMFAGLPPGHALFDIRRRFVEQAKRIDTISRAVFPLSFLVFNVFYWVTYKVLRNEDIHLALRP
# Sequence (Q6DC22 23-494): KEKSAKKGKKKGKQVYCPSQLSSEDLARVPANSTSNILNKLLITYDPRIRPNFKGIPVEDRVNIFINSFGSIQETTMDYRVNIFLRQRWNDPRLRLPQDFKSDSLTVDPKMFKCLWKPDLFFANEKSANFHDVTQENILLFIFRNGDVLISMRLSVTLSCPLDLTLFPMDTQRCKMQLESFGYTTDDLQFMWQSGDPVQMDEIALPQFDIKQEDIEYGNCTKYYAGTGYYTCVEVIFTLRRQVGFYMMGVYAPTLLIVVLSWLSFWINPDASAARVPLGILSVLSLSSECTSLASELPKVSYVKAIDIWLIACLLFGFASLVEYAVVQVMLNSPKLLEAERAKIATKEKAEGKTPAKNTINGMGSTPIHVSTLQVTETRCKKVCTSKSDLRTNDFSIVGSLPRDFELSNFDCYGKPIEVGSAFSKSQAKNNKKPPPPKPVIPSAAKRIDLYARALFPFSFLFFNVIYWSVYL
# Method Notes: two-electrode voltage clamp, Xenopus oocytes
# Assay type: cell-based
Metric: pIC50
Lab note: report pIC50 as minus log10 of the concentration in molar units, number only.

## Task pIC50 for `O=C1C[C@@H]2OCC=C3CN4CC[C@]56c7ccccc7N1[C@H]5[C@H]2[C@H]3C[C@H]46` ?
## Result 7.68
